biological target: TrkA V573M (Homo sapiens, UniProt P04629, V573M); test: Trk enzyme assay ([33P] incorporation into poly-EAY); format: biochemical; conditions: mutant TrkA V573M enzyme; 22° C., 60 minutes
Sequence (P04629 33-796 V573M): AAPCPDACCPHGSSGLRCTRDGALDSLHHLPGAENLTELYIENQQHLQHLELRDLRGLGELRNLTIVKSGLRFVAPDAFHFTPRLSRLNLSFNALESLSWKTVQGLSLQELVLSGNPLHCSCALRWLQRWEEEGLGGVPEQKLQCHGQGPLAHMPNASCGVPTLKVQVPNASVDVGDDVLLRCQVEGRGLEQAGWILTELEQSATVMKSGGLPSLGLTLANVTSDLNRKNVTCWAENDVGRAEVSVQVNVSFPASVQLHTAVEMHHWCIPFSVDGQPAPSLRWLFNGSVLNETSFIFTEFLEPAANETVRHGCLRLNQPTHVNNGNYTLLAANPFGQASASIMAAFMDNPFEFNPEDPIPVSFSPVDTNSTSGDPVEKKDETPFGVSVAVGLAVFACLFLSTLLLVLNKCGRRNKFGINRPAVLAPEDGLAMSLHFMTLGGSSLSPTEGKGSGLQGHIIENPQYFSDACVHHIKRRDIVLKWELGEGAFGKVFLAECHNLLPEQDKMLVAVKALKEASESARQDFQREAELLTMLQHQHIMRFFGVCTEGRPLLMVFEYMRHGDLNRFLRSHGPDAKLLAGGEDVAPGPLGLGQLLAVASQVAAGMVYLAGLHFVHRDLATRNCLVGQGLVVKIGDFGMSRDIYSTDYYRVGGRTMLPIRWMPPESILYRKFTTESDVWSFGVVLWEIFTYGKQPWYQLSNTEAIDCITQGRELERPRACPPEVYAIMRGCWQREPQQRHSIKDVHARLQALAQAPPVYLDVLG
ENDPOINT: IC50 (nM)

Here is how some compounds turned out for IC50.
[in] Respond only with IC50 recorded for CN(C)C(=O)Nc1cnn2ccc(N3CCC[C@@H]3c3cc(F)ccc3F)nc12
[out] 129

[in] Respond only with IC50 recorded for O=C(Nc1cnn2ccc(N3CCC[C@@H]3c3cccc(F)c3)nc12)N1CC(O)C1
[out] 1200

[in] Respond only with IC50 recorded for O=C1NCCCOc2cccc(n2)[C@H]2CCCN2c2ccn3ncc1c3n2
[out] 36.5

a: CC1(NC(=O)c2cnn3ccc(N4CCC[C@@H]4c4cncc(F)c4)nc23)CC1
b: CC1(O)CN(C(=O)Nc2cnn3ccc(N4CCC[C@@H]4c4cc(F)ccc4Cl)nc23)C1
[in] When their IC50 values are compared, which is larger, a or b ? Answer = label.
[out] b

A: NC(=O)c1cnn2ccc(N3CCC[C@@H]3c3cc(F)ccc3F)nc12
B: O=C(Nc1cnn2ccc(N3CCC[C@@H]3c3cc(F)ccc3Cl)nc12)N1CC(O)C1
[in] When their IC50 values are compared, which is larger, A or B ? Answer = label.
[out] B

----------
target: TrkC WT (Homo sapiens, UniProt Q16288, S70N); test: Trk enzyme assay ([33P] incorporation into poly-EAY); type: biochemical; conditions: wild-type TrkC enzyme; 22° C., 60 minutes
Sequence (Q16288 32-839 S70N): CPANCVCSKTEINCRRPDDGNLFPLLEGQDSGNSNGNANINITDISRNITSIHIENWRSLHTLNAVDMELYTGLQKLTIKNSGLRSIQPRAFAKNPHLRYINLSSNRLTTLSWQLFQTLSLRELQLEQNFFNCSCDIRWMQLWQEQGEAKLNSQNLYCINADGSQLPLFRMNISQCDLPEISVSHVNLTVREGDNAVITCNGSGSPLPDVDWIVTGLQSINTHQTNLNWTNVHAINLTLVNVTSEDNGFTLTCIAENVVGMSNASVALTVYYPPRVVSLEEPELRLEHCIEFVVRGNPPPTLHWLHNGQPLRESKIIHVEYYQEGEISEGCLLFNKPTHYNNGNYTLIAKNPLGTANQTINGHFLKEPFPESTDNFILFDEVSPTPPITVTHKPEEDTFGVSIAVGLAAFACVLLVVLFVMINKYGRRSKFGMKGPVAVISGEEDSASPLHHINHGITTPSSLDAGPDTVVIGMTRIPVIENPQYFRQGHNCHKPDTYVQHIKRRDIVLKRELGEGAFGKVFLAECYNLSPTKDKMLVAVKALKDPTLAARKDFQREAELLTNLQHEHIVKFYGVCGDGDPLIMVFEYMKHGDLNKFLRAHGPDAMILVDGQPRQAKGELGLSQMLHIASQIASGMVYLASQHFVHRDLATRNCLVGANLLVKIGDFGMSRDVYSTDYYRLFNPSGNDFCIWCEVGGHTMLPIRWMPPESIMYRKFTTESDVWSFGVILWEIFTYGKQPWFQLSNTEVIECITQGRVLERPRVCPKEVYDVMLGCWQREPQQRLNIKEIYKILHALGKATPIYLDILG
Listed here: items and their measured IC50.

Here is how some compounds turned out for IC50.
[in] Respond only with IC50 recorded for CONC(=O)c1cnn2ccc(N3CCC[C@@H]3c3cc(F)cnc3OC)nc12
[out] < 2.5 nM

[in] Respond only with IC50 recorded for CN(C)C(=O)Nc1cnn2ccc(N3CCC[C@@H]3c3cc(F)ccc3F)nc12
[out] < 2.5 nM

[in] Respond only with IC50 recorded for NC(=O)Nc1cnc2ccc(N3CCC[C@@H]3c3cc(F)ccc3F)nn12
[out] 4.5 nM

[in] Respond only with IC50 recorded for O=C1NC[C@@H](O)COc2ncc(F)cc2[C@H]2CCCN2c2ccn3ncc1c3n2
[out] < 2.5 nM

***
[in] Respond only with IC50 recorded for CC(=O)N1CCOc2ccc(F)cc2[C@H]2CCCN2c2ccn3ncc(c3n2)C1
[out] < 2.5 nM

[in] Respond only with IC50 recorded for CC1(NC(=O)c2cnn3ccc(N4CCC[C@@H]4c4cncc(F)c4)nc23)CC1
[out] < 2.5 nM

[in] Respond only with IC50 recorded for CNC(=O)Nc1cnc2ccc(N3CCC[C@@H]3c3cc(F)ccc3F)nn12
[out] 3.1 nM

[in] Respond only with IC50 recorded for O=C(Nc1cnn2ccc(N3CCC[C@@H]3c3cc(F)ccc3F)nc12)N1CC(O)C1
[out] < 2.5 nM

----------
biological target: TrkC F617L (Homo sapiens, UniProt Q16288, F617L/S70N); test: Trk enzyme assay ([33P] incorporation into poly-EAY); type: biochemical; conditions: mutant TrkC F617L enzyme; 22° C., 60 minutes
Sequence (Q16288 32-839 S70N/F617L): as the sequence (Q16288 32-839 S70N) above, with F586L counted along it
ENDPOINT: IC50 (nM)

[in] Respond only with IC50 recorded for O=C(Nc1cnn2ccc(N3CCC[C@@H]3c3cc(F)ccc3F)nc12)N1CC(O)C1
[out] 154

[in] Respond only with IC50 recorded for CONC(=O)c1cnn2ccc(N3CCC[C@@H]3c3cc(F)cnc3OC)nc12
[out] 12.4

A: NC(=O)c1cnn2ccc(N3CCC[C@@H]3c3cc(F)ccc3F)nc12
B: O=C(Nc1cnn2ccc(N3CCC[C@@H]3c3cc(F)ccc3Cl)nc12)N1CC(O)C1
C: CNC(=O)Nc1cnc2ccc(N3CCC[C@@H]3c3cc(F)ccc3F)nn12
[in] Order the items by recorded IC50; the first position goes to the largest value. Use the labels to give the ranking in the order requested.
[out] C, B, A

A: CC(=O)N1CCOc2ccc(F)cc2[C@H]2CCCN2c2ccn3ncc(c3n2)C1
B: O=C(NC1CC1)c1cnn2ccc(N3CCC[C@@H]3c3cncc(F)c3)nc12
[in] Pick one: A or B . Which one has the lower reported IC50? Answer = label.
[out] B

----------
target: TrkA G595R (Homo sapiens, UniProt P04629, G595R); assay: Trk enzyme assay ([33P] incorporation into poly-EAY); type: biochemical; settings: mutant TrkA G595R enzyme; 22° C., 60 minutes
Sequence (P04629 33-796 G595R): as the sequence (P04629 33-796 V573M) above, with M541V, G563R counted along it
ENDPOINT: IC50 (nM)

Here is how some compounds turned out for IC50.
[in] Respond only with IC50 recorded for CONC(=O)c1cnn2ccc(N3CCC[C@@H]3c3cc(F)cnc3OC)nc12
[out] 1.5

[in] Respond only with IC50 recorded for CN(C)C(=O)Nc1cnn2ccc(N3CCC[C@@H]3c3cc(F)ccc3F)nc12
[out] 49.6

[in] Respond only with IC50 recorded for O=C(Nc1cnn2ccc(N3CCC[C@@H]3c3cc(F)ccc3Cl)nc12)N1CC(O)C1
[out] 91.9

[in] Respond only with IC50 recorded for O=C1NCC(F)(F)COc2ncc(F)cc2[C@H]2CCCN2c2ccn3ncc1c3n2
[out] 1.6

[in] Respond only with IC50 recorded for O=C1NCCCOc2ccc(F)cc2[C@H]2CCCN2c2ccn3ncc1c3n2
[out] 1.2

[in] Respond only with IC50 recorded for CC1(NC(=O)c2cnn3ccc(N4CCC[C@@H]4c4cncc(F)c4)nc23)CC1
[out] 1.6

[in] Respond only with IC50 recorded for O=C1NC[C@@H](O)COc2ncc(F)cc2[C@H]2CCCN2c2ccn3ncc1c3n2
[out] 1.5

[in] Respond only with IC50 recorded for O=C(Nc1cnn2ccc(N3CCC[C@@H]3c3cccc(F)c3)nc12)N1CC(O)C1
[out] 561

P: CC1(C)CNC(=O)c2cnn3ccc(nc23)N2CCC[C@@H]2c2cc(F)cnc2OC1
Q: CC(=O)N1CCOc2ccc(F)cc2[C@H]2CCCN2c2ccn3ncc(c3n2)C1
[in] When their IC50 values are compared, which is larger, P or Q ? Answer = label.
[out] Q
(Q: 7.3 nM, P: 3 nM)

I: O=C1NCCCOc2cccc(n2)[C@H]2CCCN2c2ccn3ncc1c3n2
II: NC(=O)c1cnn2ccc(N3CCC[C@@H]3c3cc(F)ccc3F)nc12
[in] When their IC50 values are compared, which is larger, I or II ? Answer = label.
[out] I
(I: 2.7 nM, II: 1 nM)

1: O=C1NC[C@H](O)COc2ccc(F)cc2[C@H]2CC(F)(F)CN2c2ccn3ncc1c3n2
2: O=C1NCCCOc2ncc(F)cc2[C@H]2CCCN2c2ccn3ncc1c3n2
[in] Pick one: 1 or 2 . Which one has the lower reported IC50? Answer = label.
[out] 2

A: CC1(O)CN(C(=O)Nc2cnn3ccc(N4CCC[C@@H]4c4cc(F)ccc4Cl)nc23)C1
B: O=C(NC1CC1)c1cnn2ccc(N3CCC[C@@H]3c3cncc(F)c3)nc12
[in] Pick one: A or B . Which one has the lower reported IC50? Answer = label.
[out] B
(B: 3.3 nM, A: 107 nM)

----------
biological target: TrkB WT (Homo sapiens); assay: Trk enzyme assay ([33P] incorporation into poly-EAY); type: biochemical; conditions: wild-type TrkB enzyme; 22° C., 60 minutes
Sequence (Q16620 32-822): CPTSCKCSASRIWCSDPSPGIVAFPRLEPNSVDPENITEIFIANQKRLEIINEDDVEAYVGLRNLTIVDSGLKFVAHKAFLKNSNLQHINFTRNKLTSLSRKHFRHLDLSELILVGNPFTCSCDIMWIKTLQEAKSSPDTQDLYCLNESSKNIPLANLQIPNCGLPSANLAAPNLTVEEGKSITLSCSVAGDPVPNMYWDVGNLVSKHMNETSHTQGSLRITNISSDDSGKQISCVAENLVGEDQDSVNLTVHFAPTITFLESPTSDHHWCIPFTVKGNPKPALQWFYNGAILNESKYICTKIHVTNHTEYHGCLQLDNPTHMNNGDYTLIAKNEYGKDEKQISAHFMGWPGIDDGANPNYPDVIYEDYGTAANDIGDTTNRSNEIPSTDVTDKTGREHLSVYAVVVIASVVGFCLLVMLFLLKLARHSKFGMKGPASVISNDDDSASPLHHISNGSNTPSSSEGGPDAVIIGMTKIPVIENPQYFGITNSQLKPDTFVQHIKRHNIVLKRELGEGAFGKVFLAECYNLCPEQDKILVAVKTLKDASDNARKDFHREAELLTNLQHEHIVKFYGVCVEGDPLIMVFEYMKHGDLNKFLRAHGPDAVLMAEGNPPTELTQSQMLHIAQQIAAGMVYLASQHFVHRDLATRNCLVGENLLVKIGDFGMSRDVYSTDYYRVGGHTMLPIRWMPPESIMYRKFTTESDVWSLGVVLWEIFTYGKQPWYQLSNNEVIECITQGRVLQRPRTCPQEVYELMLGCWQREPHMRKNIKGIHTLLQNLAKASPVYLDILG
ENDPOINT: IC50 (nM)

[in] Respond only with IC50 recorded for O=C(Nc1cnn2ccc(N3CCC[C@@H]3c3cc(F)ccc3F)nc12)N1CC(O)C1
[out] 5.9

[in] Respond only with IC50 recorded for CN(C)C(=O)Nc1cnc2ccc(N3CCC[C@@H]3c3cc(F)ccc3F)nn12
[out] 4.5

[in] Respond only with IC50 recorded for O=C(Nc1cnc2ccc(N3CCC[C@@H]3c3cc(F)ccc3F)nn12)N1CC(O)C1
[out] 5.7

[in] Respond only with IC50 recorded for C[C@H]1CNC(=O)c2cnn3ccc(nc23)N2CCC[C@@H]2c2cc(F)cn(c2=O)C1
[out] 4.7

----------
biological target: TrkB G623R (Homo sapiens, UniProt Q16620, G623R); test: Trk enzyme assay ([33P] incorporation into poly-EAY); assay type: biochemical; details: mutant TrkB G623R enzyme; 22° C., 60 minutes
Sequence (Q16620 32-822 G623R): as the sequence (Q16620 32-822) above, with G592R counted along it
ENDPOINT: IC50 (nM)

Here is how some compounds turned out for IC50.
[in] Report value only: IC50, TrkB G623R (Homo sapiens, UniProt Q16620, G623R), CC1(NC(=O)c2cnn3ccc(N4CCC[C@@H]4c4cncc(F)c4)nc23)CC1 [Compound 15]
[out] 1.6

[in] Report value only: IC50, TrkB G623R (Homo sapiens, UniProt Q16620, G623R), CN(C)C(=O)Nc1cnn2ccc(N3CCC[C@@H]3c3cc(F)ccc3F)nc12 [Compound 8]
[out] 64.6

[in] Report value only: IC50, TrkB G623R (Homo sapiens, UniProt Q16620, G623R), C[C@H]1CNC(=O)c2cnn3ccc(nc23)N2CCC[C@@H]2c2cc(F)cn(c2=O)C1 [Compound 24]
[out] 4.2

I: CNC(=O)Nc1cnc2ccc(N3CCC[C@@H]3c3cc(F)ccc3F)nn12 [Compound 4]
II: O=C(Nc1cnc2ccc(N3CCC[C@@H]3c3cc(F)ccc3F)nn12)N1CC(O)C1 [Compound 1]
[in] When their IC50 values are compared, which is larger, I or II ? Answer = label.
[out] I

a: O=C(NC1CC1)c1cnn2ccc(N3CCC[C@@H]3c3cncc(F)c3)nc12 [Compound 13]
b: CC(=O)N1CCOc2ccc(F)cc2[C@H]2CCCN2c2ccn3ncc(c3n2)C1 [Compound 21]
[in] When their IC50 values are compared, which is larger, a or b ? Answer = label.
[out] b
(b: 12.4 nM, a: 2.7 nM)

Data provenance is patent US10370727B2.
